- tested.system: T1, huCLL1-Q244-Avi-Tev-His (human, UniProt Q5QGZ9 65-265);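 note: Bio-layer interferometry with scFvs captured on biosensors via anti-V5 antibody, exposed 2 min to CLL-1 K244 or Q244 protein, 5 min dissociation, scored as binding, no binding or ambiguous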
- T1 construct: extracellular domain; also called CLL-1 K244Q
- T1 sequence (looked up): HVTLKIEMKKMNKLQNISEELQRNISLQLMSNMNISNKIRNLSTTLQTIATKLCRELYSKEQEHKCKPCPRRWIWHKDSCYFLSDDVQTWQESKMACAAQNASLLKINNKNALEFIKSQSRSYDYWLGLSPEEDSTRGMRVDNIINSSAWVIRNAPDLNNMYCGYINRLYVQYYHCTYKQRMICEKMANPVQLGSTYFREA
- assay.notes: BLI
property.measured: binding result

binder="Polypeptide No. 58 (scFv, V domains shown, scFv) VH: QVQLVQSGAEVKKPGASVKVSCKASGYTFTDYYLHWVRQAPGQGLEWMGWMNPNSGNTGYAQKFQGRVTMTRDTSTSTVYMELSSLRSEDTAVYYCAADVITAYGMDVWGQGTMVTVSS VL: DIQMTQSPSSLSASVGDRVTITCRASQGISNYLAWYQQKPGKAPKLLIYDASNLETGVPSRFSGSGSGTDFTLTISSLQPEDFATYYCQQSYNVPPTFGQGTKVEIKR" property_measured="binding result" readout_value="no binding"
binder="Polypeptide No. 71 (scFv, V domains shown, scFv) VH: EVQLLESGGGLVQPGGSLRLSCAASGFTFSNHYMSWVRQAPGKGLEWVAVIWPDGSKEYYADSVKGRFTISRDNSKNTLYLQMNSLRAEDTAVYYCAREDYYGSGMDYWGQGTLVTVSS VL: DIQMTQSPSSLSASVGDRVTITCQASQDISNYLNWYQQKPGKAPKLLIYGASTLQSGVPSRFSGSGSGTDFTLTISSLQPEDFATYYCQQYDSYPPTFGGGTKVEIKR" property_measured="binding result" readout_value=binds
binder="Polypeptide No. 64 (scFv, V domains shown, scFv) VH: QVQLVQSGAEVKKPGASVKVSCKASGYTFTDYYMHWVRQAPGQGLEWMGLIDPSGGSTNSLQKFQGRVTMTRDTSTSTVYMELSSLRSEDTAVYYCARDVGFGELSFDIWGQGTTVTVSS VL: DIVMTQSPLSLPVTPGEPASISCRSSQSLLHSNGYNYLDWYLQKPGQSPQLLIYAASTLQSGVPDRFSGSGSGTDFTLKISRVEAEDVGVYYCMQGTHWPPTFGPGTKVDIKR" property_measured="binding result" readout_value="no binding"
